Data provenance is patent US9475815B2.

Structures can show the parent of a compound that is named as a salt.
Endpoint: pIC50. System: human FGFR-3 (Homo sapiens (Human)). Items follow.
Sequence (P22607 397-806): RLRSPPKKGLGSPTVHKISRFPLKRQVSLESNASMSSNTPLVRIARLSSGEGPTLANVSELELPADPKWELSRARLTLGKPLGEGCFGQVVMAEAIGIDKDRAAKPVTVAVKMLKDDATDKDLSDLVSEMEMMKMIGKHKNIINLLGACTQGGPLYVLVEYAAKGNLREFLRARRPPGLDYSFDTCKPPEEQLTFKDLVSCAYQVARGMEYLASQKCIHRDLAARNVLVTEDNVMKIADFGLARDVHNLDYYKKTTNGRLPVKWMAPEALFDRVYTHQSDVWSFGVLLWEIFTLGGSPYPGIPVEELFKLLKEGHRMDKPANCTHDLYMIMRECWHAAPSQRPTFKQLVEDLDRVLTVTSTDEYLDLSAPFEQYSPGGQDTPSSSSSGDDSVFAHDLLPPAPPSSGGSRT
# pIC50 is unitless: minus log10 of the molar concentration; print number only

Sample COc1cc(C)cc2cc(-c3cc(CNC(=O)CN)n4ncnc(N)c34)sc12 [Example 106, dihydrochloride] — what was its pIC50? 7.20

Sample COc1cc(C)cc2cc(-c3cc(COC4CCOC4)n4ncnc(N)c34)sc12 (stereo not shown) — what was its pIC50? 7.19

Others:
Sample COc1cc(C)cc2cc(-c3cc(CN4CC[C@](C)(N)C4)n4ncnc(N)c34)sc12 [Example 5, trihydrochloride] — what was its pIC50? 8.13

Sample COc1cc(C)cc2cc(-c3cc(Cn4cc(C)nc4C)n4ncnc(N)c34)sc12 — what was its pIC50? 7.24

Sample COc1cc(C)cc2cc(-c3cc(CNCC(C)(C)N4CCOCC4)n4ncnc(N)c34)sc12 — what was its pIC50? 6.94

Sample COc1cc(C)cc2cc(-c3cc(CN4CC(O)C4)n4ncnc(N)c34)sc12 — what was its pIC50? 7.62

Sample Nc1nccn2c(C3CCN(C(=O)c4ccsc4)CC3)nc(-c3cc4ccccc4s3)c12 [WO 2007/061737 Example 157, reference compound] — what was its pIC50? 5.64

Sample COc1cc(C)cc2cc(-c3cc(CN4CCC5CN(C)CC54)n4ncnc(N)c34)sc12 (stereo not shown) — what was its pIC50? 6.93

====

Endpoint: IC50. System: human FGFR-3 (Homo sapiens (Human)). Items follow.
Counter-ions that a name gives are not always drawn.
Give your result in nM as a bare value.

Sample COc1cc(C)cc2cc(-c3cc(C(=O)N4CC[C@](C)(N)C4)n4ncnc(N)c34)sc12 [Example 97, dihydrochloride] — what was its IC50? 9.9

Sample COc1cc(C)cc2cc(-c3cc(CN4CC5CC5(N)C4)n4ncnc(N)c34)sc12 (stereo not shown) — what was its IC50? 60.8

Sample COc1cc(C)cc2cc(-c3cc(CN[C@@H]4CCNC4=O)n4ncnc(N)c34)sc12 [Example 6, dihydrochloride] — what was its IC50? 21.7

Field: next compound
Sample COc1cc(C)cc2cc(-c3cc(CN4CCNC(=O)C4(C)C)n4ncnc(N)c34)sc12 — what was its IC50? 146

====

molecular target: human FGFR-1 (Homo sapiens); assay: FGFR-1 high ATP kinase assay (TR-FRET)
Sequence (P11362 22-822 limits assumed): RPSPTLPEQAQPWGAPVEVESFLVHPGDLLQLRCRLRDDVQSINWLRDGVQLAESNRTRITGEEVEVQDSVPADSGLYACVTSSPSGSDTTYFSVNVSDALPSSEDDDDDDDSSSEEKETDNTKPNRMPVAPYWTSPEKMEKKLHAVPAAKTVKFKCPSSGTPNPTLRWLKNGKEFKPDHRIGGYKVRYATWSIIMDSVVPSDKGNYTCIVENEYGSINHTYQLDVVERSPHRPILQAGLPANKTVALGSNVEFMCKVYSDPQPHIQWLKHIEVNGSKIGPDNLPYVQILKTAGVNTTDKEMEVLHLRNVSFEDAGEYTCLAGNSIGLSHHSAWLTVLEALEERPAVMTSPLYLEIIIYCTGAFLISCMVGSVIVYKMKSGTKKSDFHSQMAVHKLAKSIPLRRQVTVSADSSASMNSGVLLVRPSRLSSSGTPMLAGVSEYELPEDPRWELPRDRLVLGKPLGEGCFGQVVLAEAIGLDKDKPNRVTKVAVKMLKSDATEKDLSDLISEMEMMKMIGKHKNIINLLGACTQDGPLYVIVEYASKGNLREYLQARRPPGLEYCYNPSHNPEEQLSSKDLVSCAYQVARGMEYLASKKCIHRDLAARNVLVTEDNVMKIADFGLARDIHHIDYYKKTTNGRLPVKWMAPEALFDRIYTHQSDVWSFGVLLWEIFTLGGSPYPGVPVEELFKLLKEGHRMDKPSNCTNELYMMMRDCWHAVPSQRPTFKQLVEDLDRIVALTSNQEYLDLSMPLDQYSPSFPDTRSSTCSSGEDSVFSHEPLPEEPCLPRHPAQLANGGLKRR
Where a name gives a salt, the structure may show the parent alone.
The reader will find reported pIC50 values listed item by item below.
# pIC50 is unitless: minus log10 of the molar concentration; print number only

Sample COc1cc(C)cc2cc(-c3cc(CN4CCN(CCO)CC4)n4ncnc(N)c34)sc12 — what was its pIC50? 7.13

Sample COc1cc(C)cc2cc(-c3cc(C(=O)N4CCNCC4)n4ncnc(N)c34)sc12 [Example 99, dihydrochloride] — what was its pIC50? 7.04

Sample COc1cc(C)cc2cc(-c3cc(CNCC(C)(C)N4CCOCC4)n4ncnc(N)c34)sc12 — what was its pIC50? 7.13

Sample COc1cc(C)cc2cc(-c3cc(CN4CCNCC4)n4ncnc(N)c34)sc12 [Example 1, trihydrochloride hydrate] — what was its pIC50? 8.00

Sample COc1cc(C)cc2cc(-c3cc(CN4CCN(C(N)=O)CC4)n4ncnc(N)c34)sc12 — what was its pIC50? 7.26

Sample COc1cc(C)cc2cc(-c3cc(Cn4cc(C)nc4C)n4ncnc(N)c34)sc12 — what was its pIC50? 7.55

Sample CCC1CN(Cc2cc(-c3cc4cc(C)cc(OC)c4s3)c3c(N)ncnn23)CCN1 (centres unmarked) — what was its pIC50? 7.77

Sample COc1cc(C)cc2cc(-c3cc(CNCC4CCN(C)CC4)n4ncnc(N)c34)sc12 — what was its pIC50? 7.40

Sample COc1cc(C)cc2cc(-c3cc(C(=O)N4CCC(N(C)C)C4)n4ncnc(N)c34)sc12 (centres unmarked) — what was its pIC50? 7.68

====

target: human FGFR-3 (Homo sapiens (Human))
Counter-ions that a name gives are not always drawn.
Kindly apply the following: label 1 if IC50 is less than 70 nM, label 0 in every other case.

Worked examples follow.
Quick check: does COc1cc(C)cc2cc(-c3cc(C(=O)N4CCC(O)CC4)n4ncnc(N)c34)sc12 have IC50 under 70 nM? label 1

Quick check: does COc1cc(C)cc2cc(-c3cc(CNC4CCN(C(C)C)CC4)n4ncnc(N)c34)sc12 have IC50 under 70 nM? label 0

Quick check: does COc1cc(C)cc2cc(-c3cc(COCCN4CCCC4)n4ncnc(N)c34)sc12 [Example 107, hydrochloride] have IC50 under 70 nM? label 1

Others:
Quick check: does COc1cc(C)cc2cc(-c3cc(C(=O)N4CCNC(C(N)=O)C4)n4ncnc(N)c34)sc12 (centres unmarked) have IC50 under 70 nM? label 0

Quick check: does COc1cc(C)cc2cc(-c3cc(Cn4ccnc4C#N)n4ncnc(N)c34)sc12 have IC50 under 70 nM? label 1

Quick check: does COc1cc(C)cc2cc(-c3cc(CO[C@@H]4CCNC4)n4ncnc(N)c34)sc12 have IC50 under 70 nM? label 1

Quick check: does COc1cc(C)cc2cc(-c3cc(CNCCN4CCC(O)CC4)n4ncnc(N)c34)sc12 have IC50 under 70 nM? label 1

Quick check: does COc1cc(C)cc2cc(-c3cc(C(=O)N4CCC[C@](C)(N)C4)n4ncnc(N)c34)sc12 have IC50 under 70 nM? label 1

====

target: UniProt P42345; assay: mTOR kinase assay (TR-FRET, for comparative purposes); assay type: biochemical; details: read-out: mTOR % inhibition @ 1 μM, 1 μM test compound, 40 μM ATP, mean values
Sequence (P42345 1360-2549): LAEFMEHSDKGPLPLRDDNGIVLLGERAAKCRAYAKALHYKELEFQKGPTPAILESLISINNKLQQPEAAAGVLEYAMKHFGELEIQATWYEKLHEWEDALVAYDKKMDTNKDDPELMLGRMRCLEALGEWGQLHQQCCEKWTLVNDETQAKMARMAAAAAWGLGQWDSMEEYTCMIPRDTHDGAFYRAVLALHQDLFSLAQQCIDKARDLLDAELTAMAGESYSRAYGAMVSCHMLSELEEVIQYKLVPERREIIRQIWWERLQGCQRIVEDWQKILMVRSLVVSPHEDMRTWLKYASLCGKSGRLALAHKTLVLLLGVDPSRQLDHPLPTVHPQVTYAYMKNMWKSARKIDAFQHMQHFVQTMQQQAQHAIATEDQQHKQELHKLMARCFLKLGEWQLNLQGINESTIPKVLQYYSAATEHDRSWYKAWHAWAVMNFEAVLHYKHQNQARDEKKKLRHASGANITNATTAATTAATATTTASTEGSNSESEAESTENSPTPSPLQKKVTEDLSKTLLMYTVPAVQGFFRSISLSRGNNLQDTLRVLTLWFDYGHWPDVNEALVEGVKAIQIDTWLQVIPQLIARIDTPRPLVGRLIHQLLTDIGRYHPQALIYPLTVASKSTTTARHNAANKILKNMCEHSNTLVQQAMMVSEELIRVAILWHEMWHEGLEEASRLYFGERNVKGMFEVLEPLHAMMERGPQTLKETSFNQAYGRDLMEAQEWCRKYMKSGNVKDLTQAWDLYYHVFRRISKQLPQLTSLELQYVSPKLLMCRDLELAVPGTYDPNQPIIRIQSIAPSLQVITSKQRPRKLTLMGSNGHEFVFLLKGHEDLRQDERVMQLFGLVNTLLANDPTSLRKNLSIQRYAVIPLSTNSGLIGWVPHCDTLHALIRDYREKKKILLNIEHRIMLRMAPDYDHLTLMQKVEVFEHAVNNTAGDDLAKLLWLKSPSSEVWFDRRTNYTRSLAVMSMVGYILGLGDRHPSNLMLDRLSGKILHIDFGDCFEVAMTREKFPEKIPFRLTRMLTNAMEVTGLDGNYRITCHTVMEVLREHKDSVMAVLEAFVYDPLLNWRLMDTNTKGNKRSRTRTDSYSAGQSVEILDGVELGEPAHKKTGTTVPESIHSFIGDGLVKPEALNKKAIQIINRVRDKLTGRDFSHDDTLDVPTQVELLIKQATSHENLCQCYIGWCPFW
Label scheme for inhibition at 1 µM: lower than 7% is not met, 7% and above is met.

Does CNCCOCc1cc(-c2cc3cc(C)cc(OC)c3s2)c2c(N)ncnn12 have a reported inhibition at 1 µM of at least 7%? not met

Does COc1cc(C)cc2cc(-c3cc(CN[C@H]4CC[C@@H](N(C)C)CC4)n4ncnc(N)c34)sc12 have a reported inhibition at 1 µM of at least 7%? met

Does COc1cc(C)cc2cc(-c3cc(CN4CCC[C@H](N)C4)n4ncnc(N)c34)sc12 have a reported inhibition at 1 µM of at least 7%? met

Does COc1cc(C)cc2cc(-c3cc(CN4CCN(C(=O)C5CCC5)CC4)n4ncnc(N)c34)sc12 have a reported inhibition at 1 µM of at least 7%? met

====

Endpoint: IC50. System: human FGFR-3 (Homo sapiens (Human)). Items follow.
Give your result in nM as a bare value.

Reference set (3 entries):
Item: COc1cc(C)cc2cc(-c3cc(COC[C@H]4CCCN4)n4ncnc(N)c34)sc12 Test system: human FGFR-3 (Homo sapiens (Human)) Read-out: IC50 Value: ? 57.4

Item: COc1cc(C)cc2cc(-c3cc(CN4CCC(N5CCCC5)C4)n4ncnc(N)c34)sc12 (stereo not shown) Test system: human FGFR-3 (Homo sapiens (Human)) Read-out: IC50 Value: ? 58.6

Item: COc1cc(C)cc2cc(-c3cc(CNCC(N)=O)n4ncnc(N)c34)sc12 Test system: human FGFR-3 (Homo sapiens (Human)) Read-out: IC50 Value: ? 7.8

Field: next molecule
Item: COc1cc(C)cc2cc(-c3cc(CN4CCN(C(=O)CO)CC4)n4ncnc(N)c34)sc12 Test system: human FGFR-3 (Homo sapiens (Human)) Read-out: IC50 Value: ? 11.9

====

test system: Human umbilical vein endothelial cells (HUVEC); assay: Inhibition of growth factor-mediated cell proliferation (hFGF-2); format: cell-based; conditions: Homo sapiens, HUVEC, 72 h, 72 h exposure, hFGF-2 stimulated; from averaged pIC50 values
Counter-ions that a name gives are not always drawn.
Readout: pIC50
# pIC50 is unitless: minus log10 of the molar concentration; print number only

Item: COc1cc(C)cc2cc(-c3cc(C(=O)N4CCNCC4)n4ncnc(N)c34)sc12 [Example 99, dihydrochloride] Test system: Human umbilical vein endothelial cells (HUVEC) Read-out: pIC50 Value: ? 6.57

Item: COc1cc(C)cc2cc(-c3cc(CN4CCNC(C(N)=O)C4)n4ncnc(N)c34)sc12 (racemic) [Example 7, trihydrochloride] Test system: Human umbilical vein endothelial cells (HUVEC) Read-out: pIC50 Value: ? 7.36

Item: COc1cc(C)cc2cc(-c3cc(CNC(=O)CN)n4ncnc(N)c34)sc12 [Example 106, dihydrochloride] Test system: Human umbilical vein endothelial cells (HUVEC) Read-out: pIC50 Value: ? 7.70

Field: next compound
Item: COc1cc(C)cc2cc(-c3cc(C(=O)NC4CCNC4=O)n4ncnc(N)c34)sc12 (racemic) [Example 98, hydrochloride] Test system: Human umbilical vein endothelial cells (HUVEC) Read-out: pIC50 Value: ? 7.32
